biological target: GNAQ (T96S) (Homo sapiens, UniProt P50148, T96S); construct: BPS Bioscience (parental reporter cell line) 60406; test: SRE luciferase reporter gene-HEK293 cell line, GNAQ (T96S); type: cell-based; conditions: Cell type T96S; analytical concentration 900 nM; 20% FBS induction; read-out: GNAQ inhibitory rate
Sequence (P50148 whole entry T96S): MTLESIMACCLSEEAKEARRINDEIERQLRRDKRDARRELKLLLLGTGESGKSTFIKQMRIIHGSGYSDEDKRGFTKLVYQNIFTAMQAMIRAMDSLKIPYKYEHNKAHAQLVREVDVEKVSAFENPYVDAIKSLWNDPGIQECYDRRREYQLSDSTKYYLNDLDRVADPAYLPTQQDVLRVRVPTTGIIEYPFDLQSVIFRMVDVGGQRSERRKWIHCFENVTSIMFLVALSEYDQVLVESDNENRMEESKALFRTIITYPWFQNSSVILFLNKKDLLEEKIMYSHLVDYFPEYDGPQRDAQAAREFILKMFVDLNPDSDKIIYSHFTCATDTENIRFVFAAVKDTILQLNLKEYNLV
Field: inhibition at 0.9 µM. Provide a value for each of the compounds that follow.

Request: inhibition at 0.9 µM, test system GNAQ (T96S) (Homo sapiens, UniProt P50148, T96S), entry O=C(Nc1cccc(-c2ccnc(-c3ccnc(Cl)c3)n2)c1)Nc1cc(Cl)nc(Cl)c1 [Compound 1] < 10%

Notebook: pull reported inhibition at 0.9 µM for GNAQ (T96S) (Homo sapiens, UniProt P50148, T96S), entry O=C(Nc1ccc(-c2ccnc(-c3cccc(C(F)(F)F)c3)n2)cc1)Nc1ccc(Cl)c(C(F)(F)F)c1 [Compound 8] < 10%

inhibition at 0.9 µM of FC(F)(F)c1cccc(-c2cccc(-c3ccc(NC(=S)Nc4cc(Cl)nc(Cl)c4)cc3)n2)c1 [Compound 10] on GNAQ (T96S) (Homo sapiens, UniProt P50148, T96S)? < 10%

Which measured inhibition at 0.9 µM belongs to O=C(Nc1cccc(-c2cccc(-c3ccncc3)n2)c1)Nc1cc(Cl)nc(Cl)c1 [Compound 13] , tested on GNAQ (T96S) (Homo sapiens, UniProt P50148, T96S)? 10 to 39%

###

Assignment: determine reported inhibition at 2.7 µM for the given molecules.
target: GNAQ (WT) (Homo sapiens, UniProt P50148); construct: BPS Bioscience (parental reporter cell line) 60406; test: SRE luciferase reporter gene-HEK293 cell line, GNAQ (WT); type: cell-based; settings: Cell type WT; analytical concentration 2,700 nM; 20% FBS induction; read-out: GNAQ inhibitory rate
Sequence (P50148 whole entry): as the sequence (P50148 whole entry T96S) above, with S96T counted along it

Give the measured inhibition at 2.7 µM of O=C(Nc1cccc(-c2cc(-c3cccc(C(F)(F)F)c3)ncn2)c1)Nc1cc(Cl)nc(Cl)c1 [Compound 14] . 10 to 39%

Look up inhibition at 2.7 µM for this molecule: O=C(Nc1ccc(-c2cccc(-c3cccc(C(F)(F)F)c3)n2)cc1)Nc1cc(Cl)nc(Cl)c1 [Compound 9] 10 to 39%

Requested field: inhibition at 2.7 µM. Item: O=C(Nc1cccc(-c2cccc(-c3ccncc3)n2)c1)Nc1cc(Cl)nc(Cl)c1 [Compound 13] 40 to 70%
